experimentalProtocol: protein stability index of a GFP-peptide fusion (yeast GPS) (PSI 1-4); higher = more stable; sorted into four equal gates, so the index is relative within each strain
cond: ubr1∆
reportedEndpoint: protein stability index
Kindly provide the number alone.

Take a look at these entries with their results.
sequenceData: SRKETSRTATWLKNKFA [BRR2]
protein stability index: 1.49
--
sequenceData: DLLKNAPLFKKNSSRPM [SMD3]
protein stability index: 1.62
--
sequenceData: QLESIYFRILLPYERHM [SWI1]
protein stability index: 1.9
--
sequenceData: SNYAASNSMDRSSSASN [SWI1]
protein stability index: 2.84
--
sequenceData: NVRVGQAVETVGQAGRP [RPN1]
protein stability index: 3.02
--
sequenceData: LYDSLASTPSIRPDGRL [RRP42]
protein stability index: 2.99
--
sequenceData: YVKAVSDKAQLNVVMKN [SMC4]
protein stability index: 2.19
--
sequenceData: EENEDNDGNNRTNNVPM [NUT1]
protein stability index: 3.56
--
sequenceData: VKYMPEQKITEIEDGQD [RPO21]
protein stability index: 3.19

# input Return value of protein stability index for input NNEKVVQYLRSVQDLGG [YML031W/NDC1] , no commentary.
# output 3.61

---

Quick reference: protein stability index of the listed items.
experimentalProtocol: protein stability index of a GFP-peptide fusion (yeast GPS) (PSI 1-4); higher = more stable; sorted into four equal gates, so the index is relative within each strain
cond: doa10∆
// keep it numeric: no unit symbol after the value

sequenceData: AAPPSTNFEILNEMLNT [DIS3]
reportedEndpoint: protein stability index
numericResult: 2.9
//
sequenceData: FDDNDSGNNYNDINISS [MED2]
reportedEndpoint: protein stability index
numericResult: 3.08
//
sequenceData: INAKNIAFASNYGIVEL [RRP43]
reportedEndpoint: protein stability index
numericResult: 2.04
//
sequenceData: VIIRRLKTRDWIVVLPW [POP1]
reportedEndpoint: protein stability index
numericResult: 1.9
//
sequenceData: DEEAAGASTVMKTKTIN [PRP8]
reportedEndpoint: protein stability index
numericResult: 3.34
//
sequenceData: YGYFSVGKRVPIVEDRR [SIR4]
reportedEndpoint: protein stability index
numericResult: 3.12
//
sequenceData: KTPNRSSTPKFTKKPVT [SIR4]
reportedEndpoint: protein stability index
numericResult: 2.77
//
sequenceData: VSEVAKIMQEATQSGGV [PRE8]
reportedEndpoint: protein stability index
numericResult: 2.96

Proceeding to the next sequence to report its protein stability index.
# input In one line, give reported protein stability index of the entry LGNSIVKESNNYYSNKS [REC8] .
# output 2.68

---

experimentalProtocol: protein stability index of a GFP-peptide fusion (yeast GPS) (PSI 1-4); higher = more stable; sorted into four equal gates, so the index is relative within each strain
cond: pdr5∆
Collected protein stability index values appear next to each entry.
Just the number, please, no unit after it.

Please review the entries below; each comes with its answer.
sequenceData: KASVLEISPQDSIASVL [GAL11]
protein stability index: 3.39
//
sequenceData: RRSKQLINLAKTRVGSV [RPC82]
protein stability index: 2.91

# input Dear colleague, please send me the reported protein stability index for CAFLLTKIKDAEEDSLL [YJL039C/NUP192] when you can.
# output 3.4

---

experimentalProtocol: protein stability index of a GFP-peptide fusion (yeast GPS) (PSI 1-4); higher = more stable; sorted into four equal gates, so the index is relative within each strain
cond: ubr1∆
protein stability index overview

Solved entries:
sequenceData: QEHTIFTQLKKNIPKTR [SNU114]
result: 1.62
//
sequenceData: SSSNGGGSAKPSLKFKP [RPC53]
result: 3.34
//
sequenceData: MSGSLKSLDKKIAKRRQ [POP3]
result: 3.5

# input Determine from records and report protein stability index for QLGLQTVIRGNSIISLE [SMX2]
# output 2.25

# input Specify protein stability index for SGKETASAPLCSPKLPV [DLS1] and stop.
# output 3.14

# input Identify protein stability index associated with the sequence LGAIEQILIFAADTSIV [YJL039C/NUP192]
# output 2.56

# input Please report protein stability index for the following sequence: YILRYLHANGASFFFMV [COB]
# output 1.36

# input Tell me its protein stability index given SLYPPPPPYVKFFTQSN [MED7] as the entry.
# output 2.35

# input Report protein stability index, nothing else, for this sequence: SGTPITQTESKKEENET [SNF2]
# output 2.82

# input Quick one: give measured protein stability index for LNDLNHLLVQLQKNDVY [REC8]
# output 2.17

# input // fetch protein stability index given entry RMRIFASNEVIAKSRYW [RPL20A]
# output 2.53

---

experimentalProtocol: protein stability index of a GFP-peptide fusion (yeast GPS) (PSI 1-4); higher = more stable; sorted into four equal gates, so the index is relative within each strain
cond: san1∆
Outcome: YES for protein stability index of at least 3; NO for anything lower.

Completed entries (count: 6):
sequenceData: GSGAANENPYNNGVSNL [COR1]
discreteLabel: YES

sequenceData: IAAKLINSGLYSVLLES [YML103C/NUP188]
discreteLabel: NO

sequenceData: ELQKLVHDLNKYKSNTN [SMC2]
discreteLabel: YES

sequenceData: DHGDGILLIDSEIARTY [RPN9]
discreteLabel: YES

sequenceData: AGQLALDLANSGDESNV [YDL116W/NUP84]
discreteLabel: NO

sequenceData: QSSESFDDSDITKFALF [YML103C/NUP188]
discreteLabel: NO

# input Check if protein stability index >= 3 (inclusive). Item: EDSENPSDWQRNSFIRD [ITC1]
# output YES

# input Is reported protein stability index greater than or equal to 3 here: QSSLSKVDIPLEVVQYI [NUT2]
# output NO

# input Decide: is the reported value of protein stability index for EFEKKLQETLNKSTSSE [YIL149C/MLP2] equal to or greater than 3?
# output YES

---

experimentalProtocol: protein stability index of a GFP-peptide fusion (yeast GPS) (PSI 1-4); higher = more stable; sorted into four equal gates, so the index is relative within each strain
cond: doa10∆
Reported protein stability index values follow for various sequences
// no unit, no text: just the number

Completed entries (count: 3):
sequenceData: PADRPQGRRNSRNFSTR [SIR4]
numericResult: 3.02

sequenceData: RKFHELNDHIDDFEVNV [GRR1]
numericResult: 3.07

sequenceData: DFELEISWCSLSETNGL [PRE10]
numericResult: 2.92

# input Return protein stability index for the following sequence: IEEQGDALQDVEESSEK [DPB4]
# output 3.02

# input Assign protein stability index to the following record: KTQEYYTQYTNDYLEKH [CDC53]
# output 2.99

# input Specify measured protein stability index for LEAPVKSIENPTQTKGN [YLR335W/NUP2] .
# output 3.04

---

experimentalProtocol: protein stability index of a GFP-peptide fusion (yeast GPS) (PSI 1-4); higher = more stable; sorted into four equal gates, so the index is relative within each strain
cond: doa10∆
Let's look at some sequences and their measured protein stability index.
// response body must contain only the number

The cases that follow already have their protein stability index on record.
sequenceData: KVGQFDQVLNLCLTEFE [FAS1]
numericResult: 2.75

sequenceData: VENELLQVDVDIAGQRD [RRP42]
numericResult: 1.36

sequenceData: VQCPTVIKLAKYPDYFP [ARP9]
numericResult: 2.15

sequenceData: INLNVDDDILIIRPILG [SRB4]
numericResult: 3.42

sequenceData: LYYDEDINVESLTQSVC [PUP2]
numericResult: 2.36

# input Supply protein stability index value. Item: SKSVPTPSLPIAPPVAP [SNF5]
# output 2.74

# input Name the recorded protein stability index of the item NSSVGNKTDAQAPTTGF [YJL041W/NSP1] in your answer.
# output 3

# input Supply reported protein stability index belonging to this sequence: NVTTILDEIFSGCDSTK [ECM29]
# output 2.28

# input Let me know recorded protein stability index for DENGDKNDNGGKMNNEV [SWI3] , thanks.
# output 3.15

# input Please indicate protein stability index recorded for AFVSVYSKNNPNLLFSM [PRP8]
# output 1.93

# input Provide only the value of recorded protein stability index for RLKFGHRLIATHTNLER [SNF2]
# output 2.41

# input Provide only the value of recorded protein stability index for KDRFDIDEKSQFVETIV [RPN2]
# output 2.15

---

experimentalProtocol: protein stability index of a GFP-peptide fusion (yeast GPS) (PSI 1-4); higher = more stable; sorted into four equal gates, so the index is relative within each strain
cond: ubr1∆
reportedEndpoint: protein stability index
Reply: number alone, nothing else.

See these solved cases before continuing.
sequenceData: ALPDVVVKGLPDISRAV [RPO31]
protein stability index: 3.08
--
sequenceData: ATVVSTNHSAAASTPTT [PGD1]
protein stability index: 3
--
sequenceData: IAINFTVNHSEKFPNDV [RPP1]
protein stability index: 3.02
--
sequenceData: NDLHHSEKKYAEEDQVQ [RPN3]
protein stability index: 2.98
--
sequenceData: LDSTGFDSTAFNATVDE [MED2]
protein stability index: 3.07

# input State its protein stability index: FEQPSQREEAKKVVKKA [RPL27A]
# output 3.05

# input Supply reported protein stability index belonging to this sequence: DEEETAEGQTNSISDFL [RPN1]
# output 3.04

# input Give me measured protein stability index, please, for this sequence: VVTSSVAESFTDEADSS [SNF2]
# output 3.01

# input Give recorded protein stability index. TLDRNTAAETFKLFNKY [RPL8A]
# output 2.94
